- Tested on: NCI-H522 lung
- ASSAY_SUMMARY: NCI tumour cell line growth inhibition, 48 h
PROPERTY_NAME: TGI (µM)

compound=CN(C)c1ccc2nc3ccc(=O)cc-3sc2c1 censoring_sign== experimental_value=7.85
compound=O=C(O)c1nc(-c2ccccn2)c(-c2ccccn2)nc1C(=O)O censoring_sign== experimental_value=23.2
compound=O=C(O)c1cccc(OCCO)c1 censoring_sign=> experimental_value=100
compound=CC(=O)Oc1ccccc1-c1cc2ccccc2oc1=O censoring_sign=> experimental_value=100
compound="CC(=O)OC1CC2c3cccc4c3C(CC2N(C)C1=O)CN4C(=O)c1ccccc1 (stereo unspecified)" censoring_sign== experimental_value=34.4
compound=C#CC(=O)Nc1cccc(Nc2nc3c(c(NCc4ccccc4)n2)CCCC3)c1 censoring_sign=< experimental_value=0.01
compound="CCOC(=O)C(N)CSC(=O)NC (stereo unspecified)" censoring_sign== experimental_value=472
compound=Cc1[nH]n(-c2cccc(Cl)c2)c(=O)c1/C=C1\C=Nc2ccc(Br)cc21 censoring_sign== experimental_value=17.5
compound=CCOC(=O)[C@H](CCCNC(=O)OC(C)(C)C)NCc1ccc(OC)c(OC)c1 censoring_sign=> experimental_value=100
compound=COc1cccc(OC)c1/C=C1\OC(=O)c2cccc(OC)c21 censoring_sign== experimental_value=12.2
compound=CCN(CC)/C(Cl)=C(Cl)\C(=C1\Nc2ccc(OC)cc21)[N+](=O)[O-] censoring_sign== experimental_value=67.3

* * *

log10 TGI values by entry
- Test system: MCF7 breast
- ASSAY_SUMMARY: NCI tumour cell line growth inhibition, 48 h
PROPERTY_NAME: log10 TGI (log10 of the value in µM)

molecule=CC(=O)c1csc2c1C(=O)c1scc(C(C)=O)c1C2=O property_name="log10 TGI" experimental_value=0.52
molecule="CC(=O)OCC1OC(Nc2ncc(-c3ccc(C)cc3)s2)C(OC(C)=O)C(OC(C)=O)C1OC(C)=O (stereo not given)" property_name="log10 TGI" experimental_value=1.55
molecule="CCOC(=O)C(N)CSC(=O)NC (stereo not given)" property_name="log10 TGI" experimental_value=2.63
molecule=Cc1sc2nc(NCCc3c[nH]c4ccc(Cl)cc34)[nH]c(=O)c2c1C property_name="log10 TGI" experimental_value=0.85
molecule=CCOC(=O)N1CCN(C(=O)c2ccc(C(F)(F)F)nc2Nc2cc(Cl)ccc2C)CC1 property_name="log10 TGI" experimental_value=1.63
molecule=CN(C)Cc1c[nH]c2c1C(=O)c1c(c(O)c3ccccc3c1O)C2=O property_name="log10 TGI" experimental_value=1.19
molecule=CC(=O)Oc1ccccc1C(=O)N=C1[Se]CCCN1C(=O)c1ccccc1OC(C)=O property_name="log10 TGI" experimental_value=1.03
molecule="CCOC(=O)C1=C(C)N(N)C(=S)NC1c1ccc(C)cc1 (stereo not given)" property_name="log10 TGI" experimental_value=1.87
molecule=Cc1n(Cc2ccc3ccccc3c2)cc[n+]1Cc1ccc2ccccc2c1 property_name="log10 TGI" experimental_value=0.52

* * *

- Tested on: CAKI-1 renal
- ASSAY_SUMMARY: NCI tumour cell line growth inhibition, 48 h
Measured TGI of individual entries
PROPERTY_NAME: TGI

molecule=NS(=O)(=O)c1ccc(-n2c(-c3cccs3)nc3ccc(I)cc3c2=O)cc1 property_name=TGI experimental_value="36.6 µM"
molecule="C[C@]12CCC(=O)C=C1CC[C@@H]1C2CC[C@]2(C)c3nn(-c4ccc(F)cc4)nc3CC12 (some centres undefined)" property_name=TGI experimental_value="> 100 µM"
molecule="CCC1c2[nH]c3ccccc3c2C[C@H]2C(=O)NC(COC(C)(C)C)C(=O)N12 (some centres undefined)" property_name=TGI experimental_value="> 100 µM"
molecule=COc1ccc2c(c1)CC[C@@H]1[C@@H]2CC[C@]2(C)C(=O)/C(=C/c3ccc(OC)c(OC)c3)C[C@@H]12 property_name=TGI experimental_value="> 100 µM"
molecule=COc1cccc(CCn2c(N)c(-c3ccccc3)c3ccc([N+](=O)[O-])cc3c2=O)c1 property_name=TGI experimental_value="16.7 µM"
molecule="Cc1ccc(S(=O)(=O)C2=Cc3ccc(C(F)(F)F)cc3C2(O)c2cccc(C(F)(F)F)c2)cc1 (centres undefined)" property_name=TGI experimental_value="14.6 µM"
molecule=CCN(CC)c1ccc2cc(-c3nnc(-c4ccccc4)o3)c(=O)oc2c1 property_name=TGI experimental_value="> 100 µM"
molecule="COc1ccc(C(=O)C(CO)Oc2ccccc2OC)cc1OC (centres undefined)" property_name=TGI experimental_value="> 100 µM"
molecule=C#C[C@]1(O)CC[C@H]2[C@@H]3CC=C4c5sc(Nc6ccccc6)nc5CC[C@]4(C)[C@H]3CC[C@@]21C property_name=TGI experimental_value="4.41 µM"
molecule=Cc1cccc(NC(=O)/C=C/c2ccc(N(CCC#N)CCC#N)cc2C)c1 property_name=TGI experimental_value="> 100 µM"
molecule=COc1cc(/C=C2\C[C@H]3[C@@H]4CC=C5C[C@@H](O)CC[C@]5(C)[C@H]4CC[C@]3(C)C2=O)cc(OC)c1OC property_name=TGI experimental_value="> 100 µM"
molecule=C#CCn1ncc2c(SCc3ccccc3)ncnc21 property_name=TGI experimental_value="> 100 µM"
molecule=Clc1ccc(-c2c(C3=NCCN3)nnn2-c2ccc(Cl)cc2)cc1 property_name=TGI experimental_value="> 100 µM"
molecule=CCOC(=O)[C@H](CCCNC(=O)OC(C)(C)C)NCc1ccc(OC)c(OC)c1 property_name=TGI experimental_value="> 100 µM"
molecule=O=C1NC(=O)C(c2c[nH]c3cc(Br)ccc23)=C1c1cn(C(c2ccccc2)(c2ccccc2)c2ccccc2)cn1 property_name=TGI experimental_value="97.4 µM"
molecule=CCOC(=O)C1=C(Nc2cccc(OC)c2)OCC1=O property_name=TGI experimental_value="> 100 µM"
molecule=CN(Nc1cc(=O)[nH]c(=O)[nH]1)c1ccccc1 property_name=TGI experimental_value="> 100 µM"
molecule=O=C(NCCCNC(=O)c1ccc2c(O)c(O)ccc2c1)c1ccc2c(O)c(O)ccc2c1 property_name=TGI experimental_value="> 100 µM"
molecule=O=C(CSc1nnc(-c2ccccc2NC(=O)C(F)(F)F)c(=O)[nH]1)NC(=O)Nc1ccccc1 property_name=TGI experimental_value="> 100 µM"

* * *

- System: CAKI-1 renal
- ASSAY_SUMMARY: NCI tumour cell line growth inhibition, 48 h
PROPERTY_NAME: TGI

molecule="CCOC(=O)CC1c2ccc(O)cc2OC(=O)C1c1ccc([N+](=O)[O-])cc1 (stereo not given)" experimental_value="94.5 µM"
molecule=NC1CCCC[C@H]1N.N[C@@H]1CCCC[C@@H]1N.O=C(P(=O)([O-])[O-])P(=O)([O-])[O-].[Pt+4].[Pt+4] experimental_value="> 100 µM"
molecule=CCN(CC)CCNCC(=O)Oc1ccc(/C=C/C(=O)CC(=O)/C=C/c2ccc(OC(=O)CNCCN(CC)CC)c(OC)c2)cc1OC experimental_value="15.8 µM"
molecule=COc1ccc2c(c1)CCc1c-2[nH]c2ccc(OC)cc12 experimental_value="> 100 µM"
molecule=CCOC(=O)N1CCN(C(=O)c2ccc(C(F)(F)F)nc2Nc2cc(Cl)ccc2C)CC1 experimental_value="64.5 µM"
molecule="N#CC1Nc2ccccc2[C@@H](O)C1O (stereo not given in full)" experimental_value="> 100 µM"
molecule=c1ccc2c3ccn4cc5c(cc4c-3nc2c1)CCCC5 experimental_value="> 100 µM"
molecule=CCN1c2nc3ccccc3nc2N(CC)c2nc3ccccc3nc21 experimental_value="> 100 µM"
molecule=COn1cc(C=O)c2ccccc21 experimental_value="> 100 µM"
molecule=O=C(O)c1ccccc1-c1ccccc1C(=O)Nc1ccc2c(c1)Cc1cc(F)ccc1-2 experimental_value="> 100 µM"

* * *

- Tested on: OVCAR-5 ovarian
- ASSAY_SUMMARY: NCI tumour cell line growth inhibition, 48 h
# GI50 values compiled below
PROPERTY_NAME: GI50

compound=CC(=O)O[C@@H]1C[C@]2(C(C)C)O[C@@]1(C)[C@@H]1CCC(C)=C1[C@@H]2OC(=O)/C=C/c1ccccc1 experimental_value="> 100 µM"
compound=CC(=O)Oc1ccc(Nc2c3ccccc3nc3ccccc23)cc1 experimental_value="2.08 µM"
compound="CCOC(=O)C1=C(C)N(N)C(=S)NC1c1ccc(C)cc1 (stereo not given)" experimental_value="15.7 µM"
compound=CC(=O)Oc1ccccc1C(=O)N=C1[Se]CCN1C(=O)c1ccccc1OC(C)=O experimental_value="0.839 µM"
compound=OCCCCC#Cc1ccccc1C#Cc1cccc(O)c1 experimental_value="16.9 µM"

* * *

Catalogue of TGI readings, one per entry.
- Test system: SK-MEL-28 melanoma
- ASSAY_SUMMARY: NCI tumour cell line growth inhibition, 48 h
PROPERTY_NAME: TGI (µM)

compound=O=S(O)CCCCSSCc1ccccc1CSSCCCCS(=O)O censoring_sign== experimental_value=31.9
compound=NC(N)=N/N=C/c1cc(Cl)cc(Cl)c1O censoring_sign=> experimental_value=100
compound=Cc1cc(NC(=O)c2ccc(C)c(Nc3nccc(-c4cccnc4)n3)c2)cc(-n2cnc(C)c2)c1 censoring_sign== experimental_value=6.19
compound="O=C(Nc1ccc([N+](=O)[O-])cc1)C1C(=O)C(=O)N(c2ccc([N+](=O)[O-])cc2)C1=O (centres undefined)" censoring_sign=> experimental_value=100
compound="COc1ccc(C2C(C#N)=C(N)OC3=C2COc2ccc(F)cc23)cc1OC (centres undefined)" censoring_sign=> experimental_value=100
compound=CN1CCc2c(Sc3ccc(C(=O)NO)cc3)c3ccccc3n2C1 censoring_sign== experimental_value=3.98
compound="COC(=O)[C@@H](NC(=O)[C@@H](OC)[C@@H]1Cc2cc3cc(OC4CC(OC5CC(O)C(O)C(C)O5)C(O)C(C)O4)c(C)c(O)c3c(O)c2C(=O)[C@H]1OC1CC(OC2CC(OC3CC(C)(O)C(O)C(C)O3)C(O)C(C)O2)C(O)C(C)O1)C(C)C (some centres undefined)" censoring_sign== experimental_value=6.04
compound=O=C(NCCCNC(=O)c1ccc2c(O)c(O)ccc2c1)c1ccc2c(O)c(O)ccc2c1 censoring_sign=> experimental_value=100
compound="O=C1c2cc3c(cc2CC12Cc1cc4c(cc1C2=O)CCC4)CCCC3 (centres undefined)" censoring_sign=> experimental_value=100
